Reference source: PubChem BioAssay (NCI)

- System: HT29 colon
- Assay Remarks: NCI tumour cell line growth inhibition, 48 h
TGI: recorded values

Exam item: Give its TGI value. Item: Oc1ccc2ccccc2c1N=Nc1cccc2ccccc12
Marked response: > 100 µM

Exam item: # lookup: TGI of CC(=O)c1ccc(NC(=O)/C(CC(=O)c2sc(-c3cccnc3)nc2C)=N/NC(N)=O)cc1
Marked response: > 100 µM

Exam item: Fill blank: measured TGI of the compound Cc1ccc(C(=O)N/N=C(\N=Nc2cccc([N+](=O)[O-])c2)c2ccc(N(CCC#N)CCC#N)cc2C)cc1 is ____.
Marked response: > 100 µM

Exam item: # input compound: CC1(c2cccc(C3CC4(CCC3=O)OCCCCO4)c2)OCCO1 (stereo not given) ; wanted: its TGI
Marked response: > 100 µM

Exam item: Sample O=C(NN1C(=O)C(Cl)C1c1ccc(Cl)cc1)c1c(Cl)c(Cl)c(Cl)c(Cl)c1-c1nc2ccccc2[nH]1 (stereo not given) — what was its TGI?
Marked response: 75.8 µM

---

- Test system: MDA-MB-231 breast
- Assay Remarks: NCI tumour cell line growth inhibition, 48 h; in the data active means GI50 below about 0.43 µM; inactive means the rest
Pick from active, inactive when you respond.

>  <Compound>
NC(CSC(c1ccccc1)(c1ccccc1)c1ccccc1)C(=O)NCC(=O)O (centres undefined)

>  <Category>
inactive

$$$$

Exam item: Tell me the assay call for O=C(Oc1ccc[nH]c1=O)c1cc([N+](=O)[O-])cc([N+](=O)[O-])c1 please.
Marked response: inactive

Exam item: Assay outcome for C=C1c2c(C)nn(-c3ccc(C#CCOC4OC(CO)C(O)C(O)C4O)cc3)c2N(C)C23C[C@H]1C1(C)c4c(C)nn(-c5ccc(C#CCOC6OC(CO)C(O)C(O)C6O)cc5)c4N(C)C(C)(C[C@H]12)C3 (some centres undefined) : what was it?
Marked response: inactive

Exam item: # outcome recorded in this test, key = COc1ccc2c(c1)C(=O)CCc1cc(OC)c(OC)c(OC)c1-2
Marked response: active

---

- System: OVCAR-5 ovarian
- Assay Remarks: NCI tumour cell line growth inhibition, 48 h
Each entry below carries its recorded TGI.

Below, 2 molecules whose answers are already recorded.
>  <Molecule>
CCOC(=O)c1sc(=S)n(-c2ccc(Cl)cc2)c1-n1cc(-c2ccccc2)c(C#N)c1N

>  <Subject Of Test>
OVCAR-5 ovarian

>  <Measure>
TGI

>  <Value Measured>
> 100 µM

$$$$
>  <Molecule>
CCCCCCCC(CC(=O)NC(CO)C(=O)NC(CO)CC(C)C)OC(=O)CC(CCCCCCC)OC(=O)CC(CCCCCCC)OC1OC(C)C(O)C(OC2OC(C)C(OC(C)=O)C(O)C2O)C1O (stereo unspecified)

>  <Subject Of Test>
OVCAR-5 ovarian

>  <Measure>
TGI

>  <Value Measured>
21.7 µM

$$$$

Exam item: Name the reported TGI value associated with the molecule Cc1ccc(S(=O)(=O)OC2CC=CC2)cc1
Marked response: > 100 µM

Exam item: Tell me the measured TGI of CN(/N=C/c1ccc(C(=O)O)cc1)C1=NCCCCN1 , please.
Marked response: > 100 µM

Exam item: Can you look up the measured TGI of O=c1[nH]c2cc(C(F)(F)F)ccc2nc1C(F)(F)F for me?
Marked response: > 100 µM

---

- Test system: CCRF-CEM leukemia
- Assay Remarks: NCI tumour cell line growth inhibition, 48 h; in the data active means GI50 below about 0.43 µM; inactive means the rest
Your response should consist of one outcome taken from label 1 for active, label 0 for inactive

Exam item: Each molecule tested received a call. Report the one for CC(=O)OC1OC([C@H]2c3cccc(O)c3C(=O)c3c(O)cc(C)cc32)C(O)C(O)C1O (stereo partly drawn) .
Marked response: label 0

Exam item: Record lookup: outcome of this test for CCN1C(=O)/C(=C/c2c(Cl)[nH]c3cc(C)c(OC)cc23)c2ccccc21 ?
Marked response: label 0

Exam item: Look up the recorded call for CCCCCCCCn1ccc2cc(NC(=O)Cn3cc(CN4CCCCCC4)nn3)ccc21 in this test.
Marked response: label 0

Exam item: Recorded test outcome, item N[C@H](C(=O)O)[C@@H]1CC(Cl)=NO1
Marked response: label 0

Exam item: Can you look up the reported call for COc1ccc2c(c1)OC1=C(C(=O)OC1)C2c1cc(OC)c2c(c1)OCCO2 (stereo not drawn) for me?
Marked response: label 1

Exam item: # outcome recorded in this test, key = C#CC1(O)C(COP(=O)(O)OCC(COP(=O)(O)OCC2OC(n3cc(F)c(=O)[nH]c3=O)CC2O)OCCCCCCCCCCCCCCCCCC)OC(n2ccc(N)nc2=O)C1O (stereo not drawn)
Marked response: label 1

Exam item: Hi team, can someone confirm the assay call for Nc1n[nH]c2cccc(C#Cc3cccc(NC(=O)c4cccc(C(F)(F)F)c4)c3)c12 ?
Marked response: label 0

Exam item: # outcome recorded in this test, key = O=C1C=CC(=O)C2C1C1(Cl)C(Cl)=C(Cl)C2(Cl)C1(Cl)Cl (stereo not drawn)
Marked response: label 0
